Entries and their Elution pH values follow.
ASSAYED_TARGET: immunoglobulin immobilized on IgG Sepharose 6 Fast Flow (manufactured by Cytiva)
ASSAY_TEXT: IgG Sepharose 6 Fast Flow column; linear gradient 0.1 M citrate pH 6.5 to pH 2.2; pH at the peak of the eluted binding protein
Only the number, expressed in pH, is required.

Examples from the recorded data:
# BINDER, Elution pH, pH
records = [
    ("FpL_C3 N62R (designed binder) ETPEEPKEEVTIKVNLIFADGKIQTAEFKGTFEEATAKAYAYANLLAKENGEYTADLEDGGRTINIKFAGHHHHHH", 3),
    ("FpL_C4KR amino acid substitution mutant Lys(Arg)29Pro (designed binder) ETPEEPREEVTIRVNLIFADGRTQTAEFPGTFEEATAEAYRYADLLARVNGEYTADLEDGGYTINIRFAGHHHHHH", 3.2),
    ("FpL_C3 N62W (designed binder) ETPEEPKEEVTIKVNLIFADGKIQTAEFKGTFEEATAKAYAYANLLAKENGEYTADLEDGGWTINIKFAGHHHHHH", 3),
    ("FpL_C4KR amino acid substitution mutant Lys(Arg)13Val (designed binder) ETPEEPREEVTIVVNLIFADGRTQTAEFRGTFEEATAEAYRYADLLARVNGEYTADLEDGGYTINIRFAGHHHHHH", 3.1),
    ("FpL_C4KR amino acid substitution mutant Lys(Arg)29Ile (designed binder) ETPEEPREEVTIRVNLIFADGRTQTAEFIGTFEEATAEAYRYADLLARVNGEYTADLEDGGYTINIRFAGHHHHHH", 3.1),
    ("FpL_C4KR amino acid substitution mutant Lys(Arg)29Val (designed binder) ETPEEPREEVTIRVNLIFADGRTQTAEFVGTFEEATAEAYRYADLLARVNGEYTADLEDGGYTINIRFAGHHHHHH", 3.1),
    ("FpL_C3 N62Y (designed binder) ETPEEPKEEVTIKVNLIFADGKIQTAEFKGTFEEATAKAYAYANLLAKENGEYTADLEDGGYTINIKFAGHHHHHH", 3),
]

// switching to the query binder
Request: Respond only with Elution pH recorded for FpL_C4KR (designed binder) ETPEEPREEVTIRVNLIFADGRTQTAEFRGTFEEATAEAYRYADLLARVNGEYTADLEDGGYTINIRFAGHHHHHH
Result: 2.8
